- TARGET_OR_TEST_SYSTEM: P. falciparum apicoplast DNA polymerase (Pf-apPOL) (Plasmodium falciparum, UniProt Q8ILY1)
- Sequence (Q8ILY1 entry or part of it): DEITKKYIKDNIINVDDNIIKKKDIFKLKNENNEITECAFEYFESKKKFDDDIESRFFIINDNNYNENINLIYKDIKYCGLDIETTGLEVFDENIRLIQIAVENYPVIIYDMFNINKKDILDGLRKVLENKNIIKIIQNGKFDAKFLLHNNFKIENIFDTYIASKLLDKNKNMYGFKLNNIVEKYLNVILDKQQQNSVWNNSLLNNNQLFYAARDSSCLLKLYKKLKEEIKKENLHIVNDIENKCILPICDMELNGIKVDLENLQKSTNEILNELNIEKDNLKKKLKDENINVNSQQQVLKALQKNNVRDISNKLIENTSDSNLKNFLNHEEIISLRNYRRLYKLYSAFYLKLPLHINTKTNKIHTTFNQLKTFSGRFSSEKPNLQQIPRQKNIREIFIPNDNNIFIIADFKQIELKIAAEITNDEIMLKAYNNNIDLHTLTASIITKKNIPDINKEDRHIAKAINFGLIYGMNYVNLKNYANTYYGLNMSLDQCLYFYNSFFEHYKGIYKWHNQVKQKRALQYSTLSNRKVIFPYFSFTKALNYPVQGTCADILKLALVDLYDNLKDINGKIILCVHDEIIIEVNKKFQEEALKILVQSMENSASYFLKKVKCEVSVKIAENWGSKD
- METHOD_SUMMARY: Fluorescence-based high-throughput DNA polymerase assay (molecular beacon), primary screen and dose-response;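 further: test concentration in µM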
- Format: biochemical
- EXPERIMENTAL_CONTEXT: DRC-2; 180'; concentration 2.5
List of % inhibition apPOL 180' values.
Report as a plain number; the unit % is understood.

Cc1ccc(-n2nnc(C(=O)O)c2-c2ccccn2)c(F)c1 [Molecule 54, Cc1ccc(c(c1)F)n1nnc(c1c1ccccn1)C(=O)O]
0.3
CC(C)(C)c1cc(C(=O)C(C#N)=NNc2cccc(Cl)c2)no1 [Molecule 98]
2.49
COc1ccc(C(=O)N2CCc3c(nc4cc(-c5ccccc5Cl)[nH]n4c3=O)C2)cn1 [Molecule 26]
3.22

Then this molecule:
Problem: Given the molecule O=[N+]([O-])/C=C/c1ccc(-c2ccc(Br)cc2)o1 [Molecule 31, O=N(=O)/C=C/c1ccc(o1)c1ccc(cc1)Br] , what is its reported % inhibition apPOL 180'?
Solution: -3.28

* * *

- TARGET_OR_TEST_SYSTEM: P. falciparum apicoplast DNA polymerase (Pf-apPOL) (Plasmodium falciparum)
- METHOD_SUMMARY: Fluorescence-based high-throughput DNA polymerase assay (molecular beacon), primary screen and dose-response
- Assay type: biochemical
- EXPERIMENTAL_CONTEXT: DRC-1; 180'; concentration 10
VALUE_KIND: % inhibition apPOL 180'

Illustrative cases are given below, each with its answer.
N#CC(=NNc1cc(C(F)(F)F)cc(C(F)(F)F)c1)C(=O)c1ccco1
37.6364%
O=C(Cn1ccc2c(=O)[nH]ccc21)Nc1ccc(Cl)cc1 [Molecule 36, O=C(Cn1ccc2c1cc[nH]c2=O)Nc1ccc(cc1)Cl]
3.9308%
COc1cc(NC(=O)c2ccccc2)c(OC)cc1NC(=O)Cc1cccs1
19.4766%

Then this molecule:
Problem: Given the molecule `O=C(NCC1CCN(C2CCCC2)CC1)C(=O)NC1CCCC1` , what is its reported % inhibition apPOL 180'?
Solution: 39.3373%

* * *

- TARGET_OR_TEST_SYSTEM: bacteriophage T4 DNA polymerase (Enterobacteria phage T4, UniProt P04415)
- Construct: made in house
- Sequence (P04415 whole entry): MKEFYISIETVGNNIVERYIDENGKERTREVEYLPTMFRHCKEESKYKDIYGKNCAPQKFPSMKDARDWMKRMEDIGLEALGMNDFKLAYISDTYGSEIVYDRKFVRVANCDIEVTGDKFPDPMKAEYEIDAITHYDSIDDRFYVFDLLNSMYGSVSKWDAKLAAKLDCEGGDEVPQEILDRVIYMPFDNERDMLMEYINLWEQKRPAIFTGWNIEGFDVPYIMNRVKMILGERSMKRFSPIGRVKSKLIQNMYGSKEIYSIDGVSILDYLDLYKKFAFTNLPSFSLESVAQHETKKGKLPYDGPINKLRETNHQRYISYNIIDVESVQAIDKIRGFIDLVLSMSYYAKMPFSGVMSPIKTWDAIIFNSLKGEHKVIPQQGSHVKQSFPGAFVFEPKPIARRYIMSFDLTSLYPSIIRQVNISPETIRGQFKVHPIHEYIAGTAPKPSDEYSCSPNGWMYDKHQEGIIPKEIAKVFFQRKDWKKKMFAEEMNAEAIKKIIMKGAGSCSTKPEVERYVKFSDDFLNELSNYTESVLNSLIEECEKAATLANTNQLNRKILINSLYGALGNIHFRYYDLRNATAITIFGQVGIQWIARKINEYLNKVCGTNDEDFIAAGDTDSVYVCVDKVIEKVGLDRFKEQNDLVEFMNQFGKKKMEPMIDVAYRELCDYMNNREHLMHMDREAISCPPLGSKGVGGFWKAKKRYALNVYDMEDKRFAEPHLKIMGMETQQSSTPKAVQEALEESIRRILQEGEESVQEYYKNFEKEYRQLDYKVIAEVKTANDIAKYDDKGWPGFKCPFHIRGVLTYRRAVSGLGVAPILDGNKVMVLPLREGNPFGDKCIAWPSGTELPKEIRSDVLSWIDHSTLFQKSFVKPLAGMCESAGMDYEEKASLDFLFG
- METHOD_SUMMARY: Counter-screen against bacteriophage T4 DNA polymerase
- Assay type: biochemical
- EXPERIMENTAL_CONTEXT: DRC-2; read at 180'; concentration 20
VALUE_KIND: % inhibition T4 180' 20 (%)
Report as a plain number; the unit % is understood.

Illustrative cases are given below, each with its answer.
CC(C)CC(C(=O)O)N1C(=O)C2C3C=CC(C2C1=O)C1C(=O)N(C(CC(C)C)C(=O)O)C(=O)C31 (stereo not drawn) [KU0193449]
2.64
C#CC(C=CC)OC(=O)c1ccccc1C(=O)O (stereo not drawn) [Molecule 61, CC=CC(OC(=O)c1ccccc1C(=O)O)C#C]
-5.56

Problem: Given the compound CC(=O)OCC1=C(C(=O)[O-])N2C(=O)[C@@H](NC(=O)Cc3cccs3)[C@H]2SC1.[Na+] [Molecule 73] , what is its reported % inhibition T4 180' 20?
Solution: 14

* * *

- Tested on: chloroquine resistant P. falciparum parasites (strain Dd2)
- METHOD_SUMMARY: Parasite growth inhibition assay in human red blood cells (flow cytometry, acridine orange)
- Assay type: cell-based
- EXPERIMENTAL_CONTEXT: Plasmodium falciparum, Erythrocyte; Dd2 parasites in human RBCs, dose-response, no IPP; read-out: EC50
VALUE_KIND: EC50 (µM)
Report as a plain number; the unit µM is understood.

O=[N+]([O-])/C=C/c1ccc(-c2ccc(Br)cc2)o1
8.9

Problem: Given the molecule `Cn1nc(-c2nnc(-c3ccccc3F)o2)c2c1CCN(C(=O)c1ccccc1Cl)C2` , what is its reported EC50?
Solution: 11.3
